test system: Pseudomonas aeruginosa CIP A-22 (=PA); assay: MIC in microtitre plates (Example 10); assay type: cell-based; set-up: unit not given here; details: microtitre plate, 48 hours at 37° C., ≦20% growth
PROPERTY NAME: MIC PA

// below: answered compounds
Consider the compound shown here: Cc1ccc(-c2nc(-c3ccccc3)nc(NCCOCCOCCN)c2-c2ccccc2)cc1 [compound 13] What is its recorded MIC PA? >120

Okay, and CCCCCCCCNc1cc(C)nc(-c2ccccc2)n1 [compound 64] ? >120

Okay, and CCCCCCCCNc1cc(C)nc(-c2cccc(F)c2)n1 [compound 61] ? >120

Okay, and CCCCCCCCCCCCCCNc1cc(C)nc(C2CC2)n1 [compound 80] ? >120

As a next step, examine the compound that follows.
Consider the compound shown here: CCCCCCCCCCCCCCNc1cc(C)nc(-c2ccccc2)n1 [compound 76] What is its recorded MIC PA? >120
